assay: Primary qHTS for small molecule stabilizers of the endoplasmic reticulum resident proteome: Secreted ER Calcium Modulated Protein (SERCaMP) assay (AID 1508630); settings: SH-SY5Y GLuc-SERCaMP (Gaussia luciferase released on ER calcium loss) secretion, thapsigargin, luminescence; series mostly up to 38.4 µM
Inconclusive results are not listed. Activity calls are given as the source filed them. The call rests on the fitted dose curve; in most records, active means well fitted inhibition curve with a large enough effect; inconclusive means small, poorly fitted or top-dose-only effect; inactive means no such curve, though single readings can be large or run the other way.
quantity-measured: outcome

CO[C@H]1CCC(O[C@H]2C[C@H]([C@]3(C)CC[C@]4(C[C@H](O)[C@@H](C)[C@@H]([C@@H](C)C=C(C)C(=O)[C@H](C)C[C@H](C)C(=O)O)O4)O3)O[C@]3(O[C@@H]([C@H]4O[C@@](O)(CO)[C@H](C)C[C@H]4C)C[C@H]3C)[C@H]2C)O[C@H]1C (stereo partly drawn) = inactive
C[N+]1(C)C2CCC1CC(OC(=O)C(CO)c1ccccc1)C2 (stereo not drawn) = inactive
CC(=CCCC1=CCC(C2=CC(=O)OC2O)OC1O)CCC1=C(C)CCCC1(C)C (stereo not drawn) = inactive

----------
assay: P-glycoprotein substrates identified in KB-8-5-11 adenocarcinoma cell line, qHTS therapeutic library screen (AID 1346987); settings: KB-8-5-11 (P-gp overexpressing) viability, CellTiter-Glo, 72 h; series mostly up to 44.5 µM; further: nearly all actives have a fitted effect of over 65% in size
Records with an inconclusive call do not appear. Calls of active or inactive are those of the source. The call rests on the fitted dose curve; in most records, active means well fitted inhibition curve with a large enough effect; inconclusive means small, poorly fitted or top-dose-only effect; inactive means flat fitted curve, though single readings scatter.
quantity-measured: outcome

O=C(O)COc1nc(Cl)c(Cl)cc1Cl = inactive
C[C@@H]1[C@H](O)[C@@H](C)C=CC=CCCC=CC=CC=CC=C[C@H](O[C@H]2O[C@@H](C)[C@H](O)[C@@H](N)[C@@H]2O)CC2O[C@](O)(C[C@@H](O)[C@H](O)CC[C@@H](O)C[C@@H](O)C[C@@H](O)CC(=O)O[C@H]1C)C[C@H](O)[C@H]2C(=O)O = inactive
C=CC(=O)NCNC(=O)C=C = inactive

----------
test: Quantitative High-Throughput drug screen in 47 multiple myeloma cell lines against the NCATS MIPE library collection: PCM6_Riken cell viability assay (AID 1919870); details: CellTiter-Glo ATP, 48 h; series mostly up to 45.8 µM; further: nearly all actives have a fitted effect of over 30% in size
Inconclusive results are not listed. Calls of active or inactive are those of the source. The call rests on the fitted dose curve; in most records, active means well fitted cell-killing curve with a large enough effect; inconclusive means small, poorly fitted or top-dose-only effect, or effect the other way; inactive means no such curve, though single readings can be large or run the other way.
Your reply should match one of these outcome classes. active, inactive

Prompt line: Recorded test outcome, item CC1=NN=C(c2ccc(N)cc2)c2cc3c(cc2C1)OCO3
Response line: inactive

Prompt line: Recorded test outcome, item CC[C@@]1(O)C(=O)OCc2c1cc1n(c2=O)Cc2cc3ccccc3nc2-1
Response line: active

Prompt line: Recorded test outcome, item COc1ccc(N(C(=O)Oc2c(C)cccc2C)c2ccnc(Nc3ccc(N4CCN(C)CC4)cc3)n2)c(OC)c1
Response line: active

Prompt line: Recorded test outcome, item COc1ccc(C(=O)c2c(C)n(CCN3CCOCC3)c3cc(I)ccc23)cc1
Response line: active

----------
System: NIH3T3
Assay: Cytotoxic Profiling of Annotated Libraries Using Quantitative High-Throughput Screening (AID 1296008); further: nearly all actives have a fitted effect of over 60% in size
Conditions: Five cell lines viability, CellTiter-Glo ATP luminescence, 48-72 h
Protocol: Cell-based phenotypic screening is a commonly used approach to discover biological pathways, novel drug targets, chemical probes and high-quality hit-to-lead molecules. […] A pintool (Kalypsys) was used to transfer 23 nL of compound solution to the 1536-well assay plates. […] Plates were left at room temperature for 10 min before imaging the ATP-coupled luminescence using a ViewLux microplate imager (PerkinElmer, Waltham, MA).
Results filed as inconclusive are left out. The source made the active and inactive calls. Calls follow the shape of the dose curve; as a rule, active = well fitted inhibition curve with a large enough effect; inconclusive = small, poorly fitted or top-dose-only effect; inactive = flat fitted curve, though single readings scatter.
Your reply should match one of these outcome classes. active, inactive

Reference set, count: 5
C[C@H]1CCCC=CC2C[C@H](O)C[C@@H]2[C@H](O)C=CC(=O)O1 (some centres undefined) = active
O=C1C(I)=CC(=C(c2cc(I)c(O)c(I)c2)c2ccccc2C(=O)O)C=C1I = inactive
CC[C@@H]1[C@@H](C)O[C@@](O)([C@@H](C)[C@H](O)[C@H](C)[C@H]2OC(=O)C=CC=C[C@@H](C)[C@@H]([C@@H](C)[C@@H](O)[C@H](C)[C@@]3(O)C[C@H](O[C@H]4C[C@H](O)[C@H](O)[C@H](C)O4)[C@H](CC)[C@@H](C)O3)OC(=O)C=CC=C[C@@H]2C)C[C@H]1O[C@H]1C[C@H](O)[C@H](O)[C@H](C)O1 = active
COc1ccc(N(C(=O)Oc2c(C)cccc2C)c2ccnc(Nc3ccc(N4CCN(C)CC4)cc3)n2)c(OC)c1 = active
COc1cc([C@@H]2c3cc4c(cc3[C@@H](O)C3COC(=O)C32)OCO4)cc(OC)c1O (some centres undefined) = active

Prompt line: Recorded test outcome, item COC(C)(C)CCCC(C)C/C=C/C(C)=C/C(=O)OC(C)C (centres undefined)
Response line: inactive

Prompt line: Recorded test outcome, item CC=C(C)C(=O)O[C@H]1C(C)=C2[C@@H]3OC(=O)[C@@](C)(O)[C@@]3(O)[C@@H](OC(=O)CCC)C[C@](C)(OC(C)=O)[C@@H]2[C@@H]1OC(=O)CCCCCCC
Response line: active

Prompt line: Recorded test outcome, item Cc1c(N)nc([C@H](CC(N)=O)NC[C@@H](N)C(N)=O)nc1C(=O)N[C@H](C(=O)N[C@@H](C)[C@H](O)[C@@H](C)C(=O)N[C@@H](C(=O)NCCc1nc(-c2nc(C(=O)NCCC[S+](C)C)cs2)cs1)[C@@H](C)O)C(O[C@H]1O[C@H](CO)[C@H](O)[C@@H](O)[C@@H]1O[C@H]1O[C@H](CO)[C@@H](O)[C@H](OC(N)=O)[C@H]1O)c1cnc[nH]1 (some centres undefined)
Response line: active

Prompt line: Recorded test outcome, item CCCCCCCCCCCCCCCC[N+](C)(C)C
Response line: active

Prompt line: Recorded test outcome, item CC(=O)NCCc1c[nH]c2ccccc12
Response line: inactive

Prompt line: Recorded test outcome, item C[C@H]([C@H](O)CCC(C)(C)O)[C@H]1CC[C@@]2(O)C3=CC(=O)[C@@H]4C[C@@H](O)[C@@H](O)C[C@]4(C)[C@@H]3CC[C@]12C
Response line: inactive

Prompt line: Recorded test outcome, item COc1ccc2c(c1)[C@]13CCCCC1C(C2)N(C)CC3 (some centres undefined)
Response line: inactive

Prompt line: Recorded test outcome, item Fc1cc(Br)ccc1CBr
Response line: inactive

Prompt line: Recorded test outcome, item CC(C)(O)C(=O)Nc1ccc([N+](=O)[O-])c(C(F)(F)F)c1
Response line: inactive
